The reported numbers originate from patent US20260167622A1.

Reported DC50 values for the following compounds.
- target.of.assay: KRAS G12D protein in AsPc-1 cells (Homo sapiens, UniProt P01116, G12D)
- Construct: endogenous in cells; host or cells: AsPc-1
- Sequence (P01116 1-188 isoform P01116-2 G12D): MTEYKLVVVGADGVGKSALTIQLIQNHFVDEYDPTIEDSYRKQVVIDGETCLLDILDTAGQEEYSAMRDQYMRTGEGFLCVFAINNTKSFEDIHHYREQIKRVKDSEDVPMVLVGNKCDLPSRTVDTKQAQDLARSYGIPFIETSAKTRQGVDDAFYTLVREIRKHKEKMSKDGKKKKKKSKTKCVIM
- assay: KRAS degradation assay (Western Blot) in AsPc-1 cells
- Assay type: cell-based
- assay.context: 24 h
property.name: DC50 (nM)

given.smiles	measurement.unit	comparison.operator	result
C#Cc1c(F)ccc2cc(O)cc(-c3ncc4c(N5CCC[C@@](C)(O)C5)nc(OC[C@H](C)CN5CCN(CC6CCC7(CC6)CCN(C(=O)c6ccc(C)c(N8CCC(=O)NC8=O)c6)CC7)CC5)nc4c3F)c12	nM	=	18.7
[2H]C([2H])([2H])c1ccc(C(=O)N2CCC3(CCC(CN4CCN(C[C@@H](C)COc5nc(N6CCC[C@@](C)(O)C6)c6cnc(-c7cc(O)cc8ccc(F)c(C#C)c78)c(F)c6n5)CC4)CC3)CC2)cc1N1CCC(=O)NC1=O	nM	=	25.2
CCc1cccc2cc(O)cc(-c3ncc4c(N5CCC[C@@](C)(O)C5)nc(OCC5(CN6CCN(CC7CCC8(CC7)CCN(C(=O)c7ccc(Cl)c(N9CCC(=O)NC9=O)c7)CC8)CC6)CC5)nc4c3F)c12	nM	≤	50
C#Cc1cccc2cc(O)cc(-c3ncc4c(N5CCCOCC5)nc(OCC5(CN6CCN(CC7CCC8(CC7)CCN(C(=O)c7ccc(OC)c(N9CCC(=O)NC9=O)c7)CC8)CC6)CC5)nc4c3F)c12	nM	≤	50
